Data provenance is patent US20230235054A1.

TARGET_ENTITY: T1, huNectin4-His (human, UniProt Q96NY8 32-349)
T1 construct: Immobilized on the SPR chip; also called humanNectin4; human Nectin4; not shown: His tag
T1 sequence (looked up): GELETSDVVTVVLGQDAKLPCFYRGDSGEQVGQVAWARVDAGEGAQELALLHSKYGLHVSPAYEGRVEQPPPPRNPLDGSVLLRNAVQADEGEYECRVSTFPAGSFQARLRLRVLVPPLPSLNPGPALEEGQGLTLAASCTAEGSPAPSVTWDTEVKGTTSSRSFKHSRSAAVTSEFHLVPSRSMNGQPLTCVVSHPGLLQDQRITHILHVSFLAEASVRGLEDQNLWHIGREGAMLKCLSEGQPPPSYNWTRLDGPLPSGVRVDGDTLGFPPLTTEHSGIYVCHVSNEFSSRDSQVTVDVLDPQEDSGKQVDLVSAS
ASSAY_DETAILS: SPR, huNectin4-His immobilized, pH 6.0
METRIC: Kd (nM)
Respond with the bare value in nM.

BINDER	Kd, nM
BAP-143-00-04 (antibody, V domains shown, Used as a conjugate with a linker payload (CAB ADC)) VH: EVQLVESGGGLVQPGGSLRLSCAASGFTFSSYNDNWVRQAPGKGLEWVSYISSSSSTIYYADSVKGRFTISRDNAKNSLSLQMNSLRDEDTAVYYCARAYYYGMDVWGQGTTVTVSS VL: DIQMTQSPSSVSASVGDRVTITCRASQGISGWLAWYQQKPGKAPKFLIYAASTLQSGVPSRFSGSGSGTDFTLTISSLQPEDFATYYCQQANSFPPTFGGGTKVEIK	2.58

-- ask Fill blank: measured Kd of the binder BAP-143-00-03 (antibody, V domains shown, Used as a conjugate with a linker payload (CAB ADC)) VH: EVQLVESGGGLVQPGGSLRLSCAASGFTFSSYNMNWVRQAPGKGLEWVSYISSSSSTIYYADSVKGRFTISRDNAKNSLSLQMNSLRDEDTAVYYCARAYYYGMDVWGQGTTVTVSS VL: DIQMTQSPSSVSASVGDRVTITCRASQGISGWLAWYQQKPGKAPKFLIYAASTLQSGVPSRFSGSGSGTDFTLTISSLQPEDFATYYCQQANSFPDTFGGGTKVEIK is ____.
-- reply 6.02

-- ask Fill blank: measured Kd of the binder BAP-143-00-01 (antibody, V domains shown, Used as a conjugate with a linker payload (CAB ADC)) VH: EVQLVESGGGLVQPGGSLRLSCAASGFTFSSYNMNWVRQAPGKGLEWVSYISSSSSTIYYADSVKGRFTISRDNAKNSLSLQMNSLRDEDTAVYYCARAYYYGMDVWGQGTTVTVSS VL: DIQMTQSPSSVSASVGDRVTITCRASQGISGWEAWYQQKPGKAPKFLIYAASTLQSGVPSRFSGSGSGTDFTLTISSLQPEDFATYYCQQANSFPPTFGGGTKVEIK is ____.
-- reply 12.3
